Molecular target: neuronal nicotinic cholinergic channels in IMR-32 cells (Homo sapiens, UniProt P30926+P32297)
Assay: 86Rb+ efflux in IMR-32 cells (activation, or inhibition of efflux elicited by (S)-nicotine)
Format: cell-based
Conditions: IMR-32; inhibition of the efflux elicited by 100 μM (S)-nicotine; single dose 1 μM
Counter-ions that a name gives are not always drawn.
Tag: yes (1) if measured inhibition at 1 µM is not below 40%, no (0) if it is.

Check out these entries, answers already filled in.
>>> label_class("CCCCC#Cc1cncc(OC[C@@H]2CCCN2C)c1 [Example 4, Dihydrochloride]")
"yes (1)"
>>> label_class("CN1CCC[C@H]1COc1cncc(CCc2ccncc2)c1 [Example 29, Trihydrochloride]")
"no (0)"
>>> label_class("CN1CCC[C@H]1COc1cncc(C#CCCCc2ccccc2)c1 [Example 17, Dihydrochloride]")
"no (0)"
>>> label_class("CN1CCC[C@H]1COc1cncc(-c2cccs2)c1 [Example 6, Dihydrochloride]")
"no (0)"
>>> label_class("CCCCCCC#Cc1cncc(OC[C@@H]2CCCN2C)c1 [Example 49, Dihydrochloride]")
"no (0)"
>>> label_class("CN1CCC[C@H]1COc1cncc(C(=O)N2CCCC2)c1 [Example 19, Dihydrochloride]")
"no (0)"

Does the compound CN1CCC[C@H]1COc1cncc(C=Cc2ccncc2)c1 [Example 13] have recorded inhibition at 1 µM that is 40% or more? yes (1)

Try this compound too: COC(=O)CCc1cncc(OC[C@@H]2CCCN2C)c1 [Example 15, Dihydrochloride] no (0)

* * *

Target: neuronal nicotinic cholinergic channels in IMR-32 cells (Homo sapiens, UniProt P30926+P32297)
Experiment: 86Rb+ efflux in IMR-32 cells (activation, or inhibition of efflux elicited by (S)-nicotine)
Format: cell-based
Settings: IMR-32; inhibition of the efflux elicited by 100 μM (S)-nicotine; single dose 1 μM
Where a name gives a salt, the structure may show the parent alone.
Result type: inhibition at 1 µM (%)
One number for each entry, in %.

>>> numeric_result("Cl.Cl.Clc1ncc(OC[C@@H]2CCCN2)cc1Br [Example 23, Dihydrochloride]")
27
>>> numeric_result("CN1CCC[C@H]1COc1cncc(-c2ccc(Cl)cc2)c1.Cl.Cl [Example 38, Dihydrochloride]")
29

Below: the item to evaluate.
What does the record list as inhibition at 1 µM for CN1CCC[C@H]1COc1cncc(-c2cccc3ccccc23)c1 [Example 2, Dihydrochloride] ? 47

* * *

Where a name gives a salt, the structure may show the parent alone.
For each entry below, report its melting point value.

Take a look at these entries with their results.
>>> result("CN1CCC[C@H]1COc1cncc(C=Cc2ccncc2)c1 (as salt: hydrochloride)")
"187 to 190 °C"
>>> result("CN1CCC[C@H]1COc1cnc(Cl)c(-c2cccs2)c1.Cl.Cl")
"160 to 163 °C"
>>> result("Cl.Cl.c1ccc(-c2cncc(OC[C@H]3CCCN3)c2)cc1")
"129 to 131 °C"

Quick request: melting point for each listed item, please.
1. Cl.Clc1ncc(OC[C@@H]2CCCN2)cc1-c1cncnc1
2. CN1CC[C@H]1COc1cnc(Cl)c(-c2cncnc2)c1.Cl
3. CN1CCC[C@H]1COc1cnc(Cl)c(-c2cccnc2)c1.Cl.Cl
4. Cl.Cl.c1ncc(-c2cncc(OC[C@@H]3CCN3)c2)cn1
5. CN1CCC[C@@H]1COc1cnc(Cl)c(C=CC=CC(C)(C)C)c1.Cl.Cl
6. CN1CC[C@@H]1COc1cnc(Cl)c(-c2ccccc2)c1.Cl

1. 230 °C (dec.)
2. 143 to 144 °C
3. 108 to 110 °C
4. 185 °C (dec.)
5. 194 °C (dec.)
6. 173 to 175 °C
